- TEST_TARGET: T. cruzi CYP51 (Trypanosoma cruzi, UniProt Q7Z1V1)
- Construct: had the first 21 residues upstream of K22 replaced with the fragment MAKKKKK; His6 (C); made in house
- Sequence (Q7Z1V1 15-481, looked up, natural form): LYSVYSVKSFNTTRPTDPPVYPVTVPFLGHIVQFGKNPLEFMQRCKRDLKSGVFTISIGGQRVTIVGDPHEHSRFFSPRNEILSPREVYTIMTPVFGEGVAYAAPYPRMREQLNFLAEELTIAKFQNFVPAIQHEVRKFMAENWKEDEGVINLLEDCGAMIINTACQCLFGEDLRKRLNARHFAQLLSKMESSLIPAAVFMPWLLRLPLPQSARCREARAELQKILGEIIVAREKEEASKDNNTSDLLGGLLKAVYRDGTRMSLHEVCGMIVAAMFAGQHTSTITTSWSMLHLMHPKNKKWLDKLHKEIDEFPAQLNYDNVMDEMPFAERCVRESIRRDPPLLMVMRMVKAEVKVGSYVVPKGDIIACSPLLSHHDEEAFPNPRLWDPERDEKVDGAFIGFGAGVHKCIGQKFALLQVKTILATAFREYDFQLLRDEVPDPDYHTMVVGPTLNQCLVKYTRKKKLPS
- PROTOCOL: HTS spectral-mode binding screen, type II difference spectra scored 0-5
- CONDITION_DESCRIPTION: spectral mode, four serial dilutions 2 µM to 12.5 µM, 2 µM CYP51
Entries and their measured HTS binding score follow.
MEASUREMENT_LABEL: HTS binding score

{"COMPOUND": "Cc1ccc(NC(=O)c2sc3nc(-c4ccncc4)ccc3c2N)cc1Cl", "RESULT": 2}
{"COMPOUND": "O=C(NCCCn1ccnc1)C1CC(c2cccc(Br)c2)=NO1 (stereo not drawn)", "RESULT": 4}
{"COMPOUND": "CCOC(=O)C1=C(C)N(C)C(C)=C(C(=O)OCC)C1c1ccncc1 [Compound 29]", "RESULT": 5}
{"COMPOUND": "CCc1cc2c(cc3c(=O)n(CC(=O)NCc4cccnc4)ncn32)s1", "RESULT": 4}
{"COMPOUND": "Cc1sc(NC(=O)c2ccco2)c(C(c2cccnc2)N2CCN(CCO)CC2)c1C (stereo not drawn)", "RESULT": 4}
{"COMPOUND": "CCc1nc(SCc2cccnc2)c(C#N)c(C(F)(F)F)c1C", "RESULT": 5}
{"COMPOUND": "Cc1ccc(S(=O)(=O)N(CC(=O)NCc2cccnc2)c2cccc(Br)c2)cc1", "RESULT": 4}
{"COMPOUND": "O=C(c1cc(-c2ccncc2)nc2ccccc12)N1CCCCC1", "RESULT": 5}
{"COMPOUND": "CC1=C(C(=O)Nc2ccc(F)cc2F)C(c2cccnc2)C2=C(O)CC(C)(C)CC2=N1 (stereo not drawn)", "RESULT": 4}

---

- Tested on: T. cruzi-infected skeletal myoblasts (intracellular amastigotes)
- PROTOCOL: Hit cross-validation in T. cruzi-infected mammalian cells (image-based assay)
- Format: cell-based, Trypanosoma cruzi
- CONDITION_DESCRIPTION: Trypanosoma cruzi, Myoblast, 72 h, read-out: EC50 against T. cruzi parasites in HTS assay used to rank order the hits
pEC50: −log10 of the molar value.
MEASUREMENT_LABEL: pEC50

{"COMPOUND": "Cc1ccc(C)c(CN2CCCCC2c2cccnc2)c1 (stereo not shown) [Compound 48]", "TEST_TARGET": "T. cruzi-infected skeletal myoblasts (intracellular amastigotes)", "RESULT": 5.08}
{"COMPOUND": "CCOC(=O)C1=C(C)N(C)C(C)=C(C(=O)OCC)C1c1ccncc1 [Compound 29]", "TEST_TARGET": "T. cruzi-infected skeletal myoblasts (intracellular amastigotes)", "RESULT": 5.29}
{"COMPOUND": "O=C(Cn1ccnc1)c1ccc(Cl)cc1Cl [Compound 26]", "TEST_TARGET": "T. cruzi-infected skeletal myoblasts (intracellular amastigotes)", "RESULT": 5.34}
{"COMPOUND": "Brc1ccc(-c2csc(-c3ccncc3)n2)cc1 [Compound 18]", "TEST_TARGET": "T. cruzi-infected skeletal myoblasts (intracellular amastigotes)", "RESULT": 5.62}

---

Entries and their measured Toxicity score (highest percentage of host cell growth inhibition) follow.
- Test system: host cell (skeletal myoblasts, bovine embryo skeletal muscle or C2C12)
- PROTOCOL: Host cell toxicity in the cross-validation assay
- Assay type: cell-based
- CONDITION_DESCRIPTION: host cells in cross-validation assay, up to 10 µM
MEASUREMENT_LABEL: Toxicity score (highest percentage of host cell growth inhibition)

{"COMPOUND": "Cc1ccc(OCC(=O)ONC(=N)c2cccnc2)c(Br)c1", "RESULT": "1 (1-<20%)"}
{"COMPOUND": "Clc1ccc(Cl)c(SCCc2ccncc2)c1", "RESULT": "2 (2-21-30%)"}
{"COMPOUND": "OC(c1ccccc1)(c1ccccc1)c1c[nH]cn1", "RESULT": "2 (2-21-30%)"}
{"COMPOUND": "Brc1ccccc1OCCCCCCn1ccnc1", "RESULT": "2 (2-21-30%)"}
{"COMPOUND": "O=C(NCc1cccnc1)/C(=C\\c1cccc(Oc2ccccc2)c1)S(=O)(=O)c1ccccc1", "RESULT": "5 (5->50% growth inhibition)"}
{"COMPOUND": "COC(=O)C1=C(N)Oc2cc(C)n(CCc3ccc(OC)c(OC)c3)c(=O)c2C1c1cccnc1 (stereo not shown)", "RESULT": "1 (1-<20%)"}
{"COMPOUND": "O=C(c1ccc(Cl)cc1)C(Oc1ccc(Cl)cc1)n1cncn1 (stereo not shown)", "RESULT": "3 (3- 31-40%)"}
{"COMPOUND": "Cc1ccc(OCCCn2ccnc2)c(C)c1", "RESULT": "3 (3- 31-40%)"}
{"COMPOUND": "Cn1c(SCc2nc(-c3ccc(Cl)cc3)no2)nnc1-c1ccncc1", "RESULT": "1 (1-<20%)"}
{"COMPOUND": "O=C(Cc1coc2ccc3ccccc3c12)NCc1cccnc1", "RESULT": "2 (2-21-30%)"}
{"COMPOUND": "CC1=C(C(=O)OC2CCCC2)C(c2ccncc2)C2=C(O)CC(C)(C)CC2=N1 (stereo not shown)", "RESULT": "4 (4-41-50%)"}
{"COMPOUND": "CC(C)(C)/C(=C\\n1ccnc1)c1ccc(C(F)(F)F)cc1", "RESULT": "3 (3- 31-40%)"}
{"COMPOUND": "O=S(=O)(NCc1csc(-c2cccnc2)n1)c1ccc(Br)cc1", "RESULT": "2 (2-21-30%)"}
